Entry source: ChEMBL document CHEMBL1949629

- experimentalDetails: Permeability from apical to basolateral side of human Caco2 cells
- Assay type: ADME, cell-based
- appliedConditions: Caco-2, read-out: permeability
quantityKind: Papp A→B (×10⁻⁶ cm/s)
Give the quantity in ×10⁻⁶ cm/s, number only.

**Query** Dear colleague, please send me the reported Papp A→B for COc1c(Nc2ccc(S(C)(=O)=O)nc2C)ncnc1OC1CCN(C(=O)OC(C)C)CC1 [ADP-597] when you can.
**Result** 26

----------
- experimentalDetails: AUC (0 to infinity) in C57Bl mouse at 10 mg/kg, po
- Format: ADME, organism-based
- Parameters: time infinity, dose 10 mg/kg, route oral
- appliedConditions: plasma
quantityKind: AUC(0-inf)
Write the numeric value and follow it with the unit.

**Query** Give a short answer stating reported AUC(0-inf) for COc1c(Nc2ccc(S(C)(=O)=O)nc2C)ncnc1OC1CCN(C(=O)OC(C)C)CC1 .
**Result** 320 µg·h/mL

----------
- experimentalDetails: Permeability from basolateral to apical side of human Caco2 cells
- Assay type: ADME, cell-based
- appliedConditions: Caco-2, read-out: permeability
quantityKind: Papp B→A (×10⁻⁶ cm/s)
API: value field is a number in ×10⁻⁶ cm/s; no unit string.

**Query** Given the compound COc1c(Nc2ccc(S(C)(=O)=O)nc2C)ncnc1OC1CCN(C(=O)OC(C)C)CC1 [ADP-597] , write its reported Papp B→A.
**Result** 15

----------
- experimentalDetails: Solubility in 20% HPbetaCD after 24 hrs
- Type: physicochemical
quantityKind: solubility at 24 h (mg/mL)
State the answer as a number, implicitly in mg/mL.

**Query** Tell me measured solubility at 24 h for CCOc1c(Nc2ccc(S(C)(=O)=O)nc2C)ncnc1OC1CCN(C(=O)OC(C)C)CC1 please.
**Result** 3.3

**Query** Supply recorded solubility at 24 h for CCc1c(Nc2ccc(S(C)(=O)=O)nc2C)ncnc1OC1CCN(C(=O)OC(C)C)CC1 here.
**Result** 24.5

**Query** Could you please provide reported solubility at 24 h for Cc1nc(S(C)(=O)=O)ccc1Nc1ncnc(OC2CCN(C(=O)OC(C)C)CC2)c1C(F)F ? Thanks!
**Result** 17.3

**Query** Please list solubility at 24 h recorded for the compound Cc1c(Nc2ccc(S(C)(=O)=O)nc2)ncnc1OC1CCN(C(=O)OC(C)C)CC1
**Result** 21.3
